src = ChEMBL document CHEMBL1157023

Test system: Botrytis fabae
protocol notes: Antifungal activity against Botrytis fabae at 2 mg/ml after 7 days by agar diffusion assay
Assay type: functional
settings: 168 h, read-out: DIZ
experimental readout: zone of inhibition at 2000 µg/mL (mm)
Numbers only, in mm.

// worked examples, zone of inhibition at 2000 µg/mL included
>>> endpoint_result("NC(=O)c1c(NC(=O)c2c(Nc3ccccc3)nn3c(-c4ccccc4)ccnc23)sc2c1CCCC2")
15
>>> endpoint_result("CC1(C)S[C@@H]2[C@H](NC(=O)[C@H](N)c3ccccc3)C(=O)N2[C@H]1C(=O)O")
15
>>> endpoint_result("NC(=O)c1c(NC(=O)c2cn[nH]c2N)sc2c1CCCC2")
16
>>> endpoint_result("N#Cc1nnc2c(C(=O)Nc3sc4c(c3C(N)=O)CCCC4)c(Nc3ccccc3)nn2c1N")
16

Turning to the following compound.
Enquiry: Which zone of inhibition at 2000 µg/mL reading was recorded for the compound `COc1ccc(/C=c2\c(=O)s/c(=C(\C#N)C(=O)Nc3sc4c(c3C(N)=O)CCCC4)n2-c2ccccc2)cc1` ?
Return: 13

---

I'd appreciate it if you could supply zone of inhibition at 2000 µg/mL values for the items below.
Test system: Fusarium oxysporum
protocol notes: Antifungal activity against Fusarium oxysporum at 2 mg/ml after 7 days by agar diffusion assay
Type: functional
settings: 168 h, read-out: DIZ
One number for each entry, in mm.

Recorded zone of inhibition at 2000 µg/mL, per entry:
>>> endpoint_result("NC(=O)c1c(NC(=O)c2c(Nc3ccccc3)nn3c(-c4ccccc4)ccnc23)sc2c1CCCC2")
19
>>> endpoint_result("NC(=O)c1c(NC(=O)c2c(Nc3ccccc3)nn3c4c(cnc23)CCc2ccccc2-4)sc2c1CCCC2")
17
>>> endpoint_result("Cc1ccc(C)n1-c1[nH]nc(Nc2ccccc2)c1C(=O)Nc1sc2c(c1C(N)=O)CCCC2")
14
>>> endpoint_result("Cc1nn(-c2ccccc2)c2c1cnc1c(C(=O)Nc3sc4c(c3C(N)=O)CCCC4)c(Nc3ccccc3)nn12")
14
>>> endpoint_result("Cc1cc(C)c2c(n1)nn1c(N)c(C(=O)Nc3sc4c(c3C(N)=O)CCCC4)nnc21")
13

Would you mind listing zone of inhibition at 2000 µg/mL for each of the following compounds?
1. NC(=O)c1c(NC(=O)c2cn[nH]c2N)sc2c1CCCC2
2. Cc1cc(C)n2nc(Nc3ccccc3)c(C(=O)Nc3sc4c(c3C(N)=O)CCCC4)c2n1
3. N#C/C(C(=O)Nc1sc2c(c1C(N)=O)CCCC2)=C1\SC(=O)CN1c1ccccc1
4. COc1ccc(/C=c2\c(=O)s/c(=C(\C#N)C(=O)Nc3sc4c(c3C(N)=O)CCCC4)n2-c2ccccc2)cc1
5. CC1(C)S[C@@H]2[C@H](NC(=O)[C@H](N)c3ccccc3)C(=O)N2[C@H]1C(=O)O
6. Cc1ccc(N/N=C2/C(=O)S/C(=C(\C#N)C(=O)Nc3sc4c(c3C(N)=O)CCCC4)N2c2ccccc2)cc1

Return:
1. 12
2. 13
3. 16
4. 15
5. 17
6. 16

Enquiry: Consider the compound `NC(=O)c1c(NC(=O)c2c(Nc3ccccc3)n[nH]c2N)sc2c1CCCC2` and give its measured zone of inhibition at 2000 µg/mL.
Return: 14

---

Test system: Botrytis fabae
protocol notes: Antifungal activity against Botrytis fabae at 2 mg/ml after 7 days by agar diffusion assay
Format: functional
settings: 168 h, read-out: DIZ
experimental readout: zone of inhibition at 2000 µg/mL (mm)
One number for each entry, in mm.

>>> endpoint_result("Cc1cc(C)n2nc(Nc3ccccc3)c(C(=O)Nc3sc4c(c3C(N)=O)CCCC4)c2n1")
15
>>> endpoint_result("Cc1ccc(N/N=C2/C(=O)S/C(=C(\\C#N)C(=O)Nc3sc4c(c3C(N)=O)CCCC4)N2c2ccccc2)cc1")
18
>>> endpoint_result("Cc1nn(-c2ccccc2)c2c1cnc1c(C(=O)Nc3sc4c(c3C(N)=O)CCCC4)c(Nc3ccccc3)nn12")
16

Consider the following items and state reported zone of inhibition at 2000 µg/mL for each.
1. N#C/C(C(=O)Nc1sc2c(c1C(N)=O)CCCC2)=C1\SC(=O)CN1c1ccccc1
2. Cc1cc(C)c2c(n1)nn1c(N)c(C(=O)Nc3sc4c(c3C(N)=O)CCCC4)nnc21
3. CC(=O)c1nnc2c(C(=O)Nc3sc4c(c3C(N)=O)CCCC4)c(Nc3ccccc3)nn2c1C
4. Cc1ccc(C)n1-c1[nH]nc(Nc2ccccc2)c1C(=O)Nc1sc2c(c1C(N)=O)CCCC2

Return:
1: 12; 2: 13; 3: 18; 4: 18
